Target Under Test: recombinant GST-GK (Homo sapiens)
Sequence (P35557 whole entry): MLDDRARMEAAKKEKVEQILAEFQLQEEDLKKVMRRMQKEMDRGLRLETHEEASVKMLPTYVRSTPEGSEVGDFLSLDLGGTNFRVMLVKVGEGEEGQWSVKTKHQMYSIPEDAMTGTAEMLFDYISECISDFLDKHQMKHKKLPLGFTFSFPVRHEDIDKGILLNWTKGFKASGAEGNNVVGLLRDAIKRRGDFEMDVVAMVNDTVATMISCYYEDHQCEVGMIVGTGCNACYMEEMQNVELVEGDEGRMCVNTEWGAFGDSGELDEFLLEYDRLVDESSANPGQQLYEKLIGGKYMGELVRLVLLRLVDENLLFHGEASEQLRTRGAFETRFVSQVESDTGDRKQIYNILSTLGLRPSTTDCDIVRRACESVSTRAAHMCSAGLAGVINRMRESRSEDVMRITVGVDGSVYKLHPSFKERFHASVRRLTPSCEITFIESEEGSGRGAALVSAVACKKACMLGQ
Assay: primary enzyme assay: glucokinase activation in vitro (thio-NADH coupled assay)
Experimental Context: concentration of compound that produces a 50% increase in the activity of GK vs DMSO control; 10 mM glucose, 25° C.
Excerpt: For example, the glucokinase activation in vitro may be determined by measuring the activation of recombinant GST-GK by a compound of the present invention in the absence or the presence of GKRP, a 68,000 Da protein inhibitor of GK. In these assays, formation of glucose-6-phosphate is coupled directly to the formation of thio-NADH. GST-GK catalyzes the reaction of glucose and Mg-ATP to produce glucose-6-phosphate and ADP. […]
Readout Kind: EC50 (nM)

1: CN1CCN(S(=O)(=O)c2ccc(C(CC3CCCC3)C(=O)Nc3ccc(C(=O)O)cn3)cc2)CC1 (stereo not drawn)
2: CCN(CC)S(=O)(=O)c1ccc(C(CC2CCCC2)C(=O)Nc2nc3c(s2)CN(C(=O)OC(C)(C)C)CC3)cc1 (stereo not drawn)
3: CCN(CC)S(=O)(=O)c1ccc(C(CC2CCCC2)C(=O)Nc2nccs2)cc1 (stereo not drawn)
Sort the listed molecules above so the one with the largest EC50 comes first and the smallest comes last. Ranked list of labels, please, in the requested order.
1, 2, 3
(1: 1400 nM, 2: 95 nM, 3: 60 nM)
